Molecular target: T1, Rok-C114-185 (Bacillus subtilis subsp. subtilis str. …, UniProt O34857 114-185)
T1 sequence: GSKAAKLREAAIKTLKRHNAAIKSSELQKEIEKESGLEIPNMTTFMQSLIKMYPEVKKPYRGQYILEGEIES
Assay: ITC; ITC: sodium phosphate buffer, 200 mM NaCl, pH 6, 277 K, 50 uM protein in cell titrated with 750 uM Seq1 DNA; PBM: buffer not stated
Details: protein: recombinant; tags: C-terminal His6; blunt, self-complementary 18 bp
quantity-name: pKd
Scale note: pKd = -log10(concentration in M).

Task: Please give the measured pKd for this binder: Seq1 (dsDNA) DNA 1: CTAATAACTAGTTATTAG DNA 2: CTAATAACTAGTTATTAG
Result: 4.71
